From: patent US10377774B2

# System: human nasopharyngeal carcinoma cell line CNE-2
# method: MTT cell growth inhibition, CNE-2
# Assay type: cell-based
# assayConditions: Homo sapiens; CNE-2, MTT assay, 72 h; read-out: IC50, growth of tumor cell line
Kindly state IC50 for each of the entries shown.
Answer format reminder: number followed by unit.

Inquiry: Looking for the measured IC50 of CCC1=C[C@@H]2CN(C1)Cc1c([nH]c3ccccc13)[C@@](C(=O)OC)(c1cc3c(cc1OC)N(C)[C@H]1[C@@](O)(C(=O)OC)[C@H](OC(C)=O)[C@]4(CC)C=CCN5CC[C@]31[C@@H]54)C2 [Vinorelbine, reference compound] , can you help?
Reply text: 9.03 nM

Inquiry: Looking for the measured IC50 of CC[C@]1(O)C[C@@H]2CN(CCc3c([nH]c4ccccc34)[C@@](C(=O)OC)(c3cc4c(cc3OC)N(C)[C@H]3[C@@](O)(C(=O)NN)[C@H](O)[C@]5(CC)C=CCN6CC[C@]43[C@@H]65)C2)C1 [JJ-CCJ, hydrazinolyzed vinblastine] , can you help?
Reply text: 7.14 nM

Inquiry: Looking for the measured IC50 of CC[C@]1(O)C[C@@H]2CN(CCc3c([nH]c4ccccc34)[C@@](C(=O)OC)(c3cc4c(cc3OC)N[C@H]3[C@@](O)(C(=O)NN)[C@H](O)[C@]5(CC)C=CCN6CC[C@]43[C@@H]65)C2)C1 [JJ-CCXJ, hydrazinolyzed vincristine] , can you help?
Reply text: 8.37 nM
